# Assayed System: hCK2α (Homo sapiens)
# Construct: made in house
# Assay Remarks: Isothermal titration calorimetry (MicroCal iTC200), reverse titration
# Type: binding
# Condition Notes: iTC200; 25 °C; pH 8; independent experiments separately evaluated
Measurement Label: Kd (nM)
One number for each entry, in nM.

Inquiry: Lab note: need Kd for Brc1ccc2n[nH]nc2c1 [5-BrBt] on hCK2α (Homo sapiens), anyone have it?
Reply text: 930

----------
# Assayed System: hCK2α (Homo sapiens, UniProt P68400)
# Construct: made in house
# Sequence (P68400 whole entry): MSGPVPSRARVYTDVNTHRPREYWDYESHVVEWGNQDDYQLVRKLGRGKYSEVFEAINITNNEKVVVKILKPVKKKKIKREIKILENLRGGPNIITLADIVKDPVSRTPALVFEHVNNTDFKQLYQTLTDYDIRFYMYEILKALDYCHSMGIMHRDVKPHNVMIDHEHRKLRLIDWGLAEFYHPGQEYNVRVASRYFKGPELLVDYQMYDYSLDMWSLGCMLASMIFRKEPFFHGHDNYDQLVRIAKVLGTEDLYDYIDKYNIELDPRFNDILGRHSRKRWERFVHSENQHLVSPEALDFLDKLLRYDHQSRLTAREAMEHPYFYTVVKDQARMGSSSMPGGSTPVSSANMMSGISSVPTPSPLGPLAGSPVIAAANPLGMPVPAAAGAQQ
# Assay Remarks: Isothermal titration calorimetry (MicroCal iTC200), reverse titration
# Assay type: binding
# Condition Notes: 25 °C; pH 8; ITC
# Procedure: ITC measurements were carried out using the MicroCal iTC200 (Malvern) calorimeter. The hCK2α samples were diluted to the required protein concentration with the 25 mM Tris-HCl pH 8 buffer containing 0.5 M NaCl. Stock ligand solutions were diluted with the appropriate DMSO volume prior to mixing with the buffer to obtain the required ligand concentration and a final DMSO content of 1%. […]
Measurement Label: ΔGbind, free energy of binding

INSERT INTO assay_data (record_smiles, observed_result) VALUES
  ('Brc1cc(Br)c2n[nH]nc2c1', '–34.5 ± 0.4 kJ·mol^–1'),
  ('Brc1cc(Br)c2[nH]nnc2c1Br', '–34.5 ± 0.4 kJ·mol^–1');
